// provenance: paper PMC8854719

- assay.procedure: Plasma pharmacokinetics of pamiparib (LC-MS/MS, non-compartmental)
- Design: species or system human
- recorded.conditions: human, in vivo, 120 mg, Cmax, Single Dose (Cycle 1 Day 1)
measured.quantity: Cmax (ng/mL)
Provide the reading as a plain figure in ng/mL.

// returns reported Cmax for input C[C@]12CCCN1CC1=NNC(=O)c3cc(F)cc4[nH]c2c1c34 [pamiparib] 3590

* * *

- assay.procedure: Plasma pharmacokinetics of pamiparib (LC-MS/MS, non-compartmental)
- Parameters: species or system human
- recorded.conditions: human, in vivo, 40 mg, AUC0-9, Single Dose (Cycle 1 Day 1)
measured.quantity: AUC(0-t) (ng·h/mL)
Provide the reading as a plain figure in ng·h/mL.

// returns reported AUC(0-t) for input C[C@]12CCCN1CC1=NNC(=O)c3cc(F)cc4[nH]c2c1c34 [pamiparib] 8950

* * *

- assay.procedure: Plasma pharmacokinetics of pamiparib (LC-MS/MS, non-compartmental)
- Design: species or system human
- recorded.conditions: human, in vivo, 2.5 mg, AUC0-9, Single Dose (Cycle 1 Day 1)
measured.quantity: AUC(0-t)

// returns reported AUC(0-t) for input C[C@]12CCCN1CC1=NNC(=O)c3cc(F)cc4[nH]c2c1c34 385 ng·h/mL

* * *

- assay.procedure: Plasma pharmacokinetics of pamiparib (LC-MS/MS, non-compartmental)
- Design: species or system human
- recorded.conditions: human, in vivo, 5 mg, Vz/F, Single Dose (Cycle 1 Day 1)
measured.quantity: Vd/F (L)
Provide the reading as a plain figure in L.

// returns reported Vd/F for input C[C@]12CCCN1CC1=NNC(=O)c3cc(F)cc4[nH]c2c1c34 32.7

* * *

- assay.procedure: Plasma pharmacokinetics of pamiparib (LC-MS/MS, non-compartmental)
- Design: species or system human
- recorded.conditions: human, in vivo, 120 mg, Tmax, Single Dose (Cycle 1 Day 1)
measured.quantity: Tmax

// returns reported Tmax for input C[C@]12CCCN1CC1=NNC(=O)c3cc(F)cc4[nH]c2c1c34 1.95 h

* * *

- assay.procedure: Plasma pharmacokinetics of pamiparib (LC-MS/MS, non-compartmental)
- Design: species or system human
- recorded.conditions: human, in vivo, 160 mg, AUC0-inf, Single Dose (Cycle 1 Day 1)
- Description: Patients in the dose-escalation phase received a single oral dose of pamiparib on day 1 of cycle 1 to collect samples for single-dose PK assessment over 48 h, followed by continuous daily doses (BID and QD) starting on day 3 of cycle 1 as a 21-day period of repeated drug administration (days 3–23), and then continued every 21-day cycle thereafter until disease progression, toxicity, or patient withdrawal. Eight BID dose levels (2.5, 5, 10, 20, 40, 60, 80, 120 mg) were administered (Fig. 1). […]
measured.quantity: AUC(0-inf) (µg·h/mL)
Provide the reading as a plain figure in µg·h/mL.

// returns reported AUC(0-inf) for input C[C@]12CCCN1CC1=NNC(=O)c3cc(F)cc4[nH]c2c1c34 102

* * *

- assay.procedure: Plasma pharmacokinetics of pamiparib (LC-MS/MS, non-compartmental)
- Parameters: species or system human
- recorded.conditions: human, in vivo, 120 mg, AUC0-inf, Single Dose (Cycle 1 Day 1)
measured.quantity: AUC(0-inf) (ng·h/mL)
Provide the reading as a plain figure in ng·h/mL.

// returns reported AUC(0-inf) for input C[C@]12CCCN1CC1=NNC(=O)c3cc(F)cc4[nH]c2c1c34 [pamiparib] 52000

* * *

- assay.procedure: Plasma pharmacokinetics of pamiparib (LC-MS/MS, non-compartmental)
- Design: species or system human
- recorded.conditions: human, in vivo, 5 mg, Cmax, Steady State (Cycle 1 Day 17)
measured.quantity: Cmax (ng/mL)
Provide the reading as a plain figure in ng/mL.

// returns reported Cmax for input C[C@]12CCCN1CC1=NNC(=O)c3cc(F)cc4[nH]c2c1c34 404

* * *

- assay.procedure: Plasma pharmacokinetics of pamiparib (LC-MS/MS, non-compartmental)
- Set-up: species or system human
- recorded.conditions: human, in vivo, 60 mg, AUC0-inf, Single Dose (Cycle 1 Day 1)
measured.quantity: AUC(0-inf) (ng·h/mL)
Provide the reading as a plain figure in ng·h/mL.

// returns reported AUC(0-inf) for input C[C@]12CCCN1CC1=NNC(=O)c3cc(F)cc4[nH]c2c1c34 32000

* * *

- assay.procedure: Plasma pharmacokinetics of pamiparib (LC-MS/MS, non-compartmental)
- Parameters: species or system human
- recorded.conditions: human, in vivo, 120 mg, AUC0-9, Steady State (Cycle 1 Day 17)
- Protocol: Patients in the dose-escalation phase received a single oral dose of pamiparib on day 1 of cycle 1 to collect samples for single-dose PK assessment over 48 h, followed by continuous daily doses (BID and QD) starting on day 3 of cycle 1 as a 21-day period of repeated drug administration (days 3–23), and then continued every 21-day cycle thereafter until disease progression, toxicity, or patient withdrawal. Eight BID dose levels (2.5, 5, 10, 20, 40, 60, 80, 120 mg) were administered (Fig. 1). […]
measured.quantity: AUC(0-t) (ng·h/mL)
Provide the reading as a plain figure in ng·h/mL.

// returns reported AUC(0-t) for input C[C@]12CCCN1CC1=NNC(=O)c3cc(F)cc4[nH]c2c1c34 26900

* * *

- assay.procedure: Plasma pharmacokinetics of pamiparib (LC-MS/MS, non-compartmental)
- Parameters: species or system human
- recorded.conditions: human, in vivo, 2.5 mg, AUC0-9, Steady State (Cycle 1 Day 17)
measured.quantity: AUC(0-t) (ng·h/mL)
Provide the reading as a plain figure in ng·h/mL.

// returns reported AUC(0-t) for input C[C@]12CCCN1CC1=NNC(=O)c3cc(F)cc4[nH]c2c1c34 [pamiparib] 931

* * *

- assay.procedure: Plasma pharmacokinetics of pamiparib (LC-MS/MS, non-compartmental)
- Parameters: species or system human
- recorded.conditions: human, in vivo, 80 mg, t1/2, Single Dose (Cycle 1 Day 1)
measured.quantity: half-life (h)
Provide the reading as a plain figure in h.

// returns reported half-life for input C[C@]12CCCN1CC1=NNC(=O)c3cc(F)cc4[nH]c2c1c34 [pamiparib] 9.58

* * *

- assay.procedure: Plasma pharmacokinetics of pamiparib (LC-MS/MS, non-compartmental)
- Parameters: species or system human
- recorded.conditions: human, in vivo, 160 mg, Cmax, Single Dose (Cycle 1 Day 1)
measured.quantity: Cmax (ng/mL)
Provide the reading as a plain figure in ng/mL.

// returns reported Cmax for input C[C@]12CCCN1CC1=NNC(=O)c3cc(F)cc4[nH]c2c1c34 5340

* * *

- assay.procedure: Plasma pharmacokinetics of pamiparib (LC-MS/MS, non-compartmental)
- Design: species or system human
- recorded.conditions: human, in vivo, 10 mg, Vz/F, Single Dose (Cycle 1 Day 1)
measured.quantity: Vd/F (L)
Provide the reading as a plain figure in L.

// returns reported Vd/F for input C[C@]12CCCN1CC1=NNC(=O)c3cc(F)cc4[nH]c2c1c34 [pamiparib] 27.6
